protocol.summary: PK rat clearance experiment
Type: in vivo
run.conditions: male Sprague-Dawley rats, single intravenous bolus 0.5 mg/kg, plasma
observable: log10 of clearance (log10 of the value in mL/min/kg)
log10 clearance, mL/min/kg

>>> value_measured("FC1(F)CC(Oc2ccc(-c3ccc4nnc(C(F)(F)F)n4n3)cn2)C1")
1.49
>>> value_measured("Cc1cc(OC(F)(F)F)ccc1-c1cn2c(C(F)(F)F)nnc2cn1")
0.94
>>> value_measured("Fc1cc(-c2ccc3nnc(C(F)(F)F)n3n2)ccc1OC(F)(F)F")
0.30
>>> value_measured("FC(F)(F)COc1ccc(-c2ccc3nnc(C(F)(F)F)n3n2)cn1")
1.46

Now consider the entry below.
[Q] Consider the molecule shown here: `N#CC1(c2ccc(-c3ccc4nnc(C(F)(F)F)n4n3)cc2)CC1` What is its recorded log10 of clearance?
[A] 0.71
